Listing: inhibition of selected compounds
# Tested on: cathepsin L1 (Fasciola hepatica)
# test method notes: CTSL1 protease inhibition, fluke enzyme – biochemical, QFRET, fluorogenic peptide substrate, counter-screen for PFM18AAP inhibitor project, primary screen (AID 1906);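 also: 0% = plate median of test compound wells and 100% = 1 µM Z-Phe-Ala-diazomethylketone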
# stated conditions: recombinant F. hepatica cathepsin L1, Z-Leu-Arg-MCA fluorescence; at 5.96 µM; stronger effect = higher value
Out of some 300,000 compounds screened, about 1,500 (0.5%) were called active. Shown is part of a subset that was picked to be rich in actives.
recorded endpoint: inhibition (%)

compound: Cc1c(C(=O)OC(C)C)sc(NC(=O)c2cccnc2)c1C#N
units symbol: %
recorded measurement: 2.51

compound: Cc1cccc(-n2c(C)cc(/C=N\NC(=O)c3cccs3)c2C)c1
units symbol: %
recorded measurement: -1.99

compound: COc1ccc(F)cc1S(=O)(=O)NCC(c1ccc2c(c1)OCO2)N1CCN(C)CC1 (stereo unspecified)
units symbol: %
recorded measurement: 4.62

compound: Cc1cccc(-n2c(C)cc(/C=N/NC(N)=S)c2C)c1
units symbol: %
recorded measurement: 35.5

compound: Cc1ccc(-n2c(C)cc(/C=N\NC(=O)CC(=O)NC(C)C)c2C)cc1
units symbol: %
recorded measurement: -0.88

compound: COn1c(=O)c(=O)n(OC)c2ccccc21
units symbol: %
recorded measurement: 2.56

###

The entries below come with measured inhibition values attached.
# System: cathepsin L1 (Fasciola hepatica)
# test method notes: CTSL1 protease inhibition, fluke enzyme – biochemical, QFRET, fluorogenic peptide substrate, counter-screen for PFM18AAP inhibitor project, primary screen (AID 1906);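 also: 0% = plate median of test compound wells and 100% = 1 µM Z-Phe-Ala-diazomethylketone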
# stated conditions: recombinant F. hepatica cathepsin L1, Z-Leu-Arg-MCA fluorescence; at 5.96 µM; stronger effect = higher value
About 1,500 (0.5%) of roughly 300,000 compounds were called active. This is one part of a sample in which actives are shown more often than they occur.

compound: Cc1ccc(NC(=S)N(Cc2ccco2)C(C)c2cccs2)cc1 (stereo unspecified)
inhibition / %: 22.4

compound: COc1ccc(/C=C/CN2CCN(Cc3ccc(C)cc3)C(CCO)C2)cc1 (stereo unspecified)
inhibition / %: 7.06

compound: O=C(NCc1ccco1)/C(=C/c1ccco1)NC(=O)c1ccccc1
inhibition / %: 8.99

compound: CC(=O)c1ccc(NC(=O)Cn2c(=O)oc3ccccc32)cc1
inhibition / %: 5.59

compound: COc1ccc(OC)c(NC(=O)c2cccc(S(=O)(=O)N3CCN(C(C)=O)CC3)c2)c1
inhibition / %: -1.16

compound: Cc1cc(C)n(-c2nc(O)cc(=O)[nH]2)n1
inhibition / %: -2.61

compound: O=C(OCN1C(=O)c2ccccc2C1=O)/C(=C\c1ccco1)NC(=O)c1ccccc1
inhibition / %: 83.3

compound: Cc1ccc(NC(=S)Nc2ncccc2C)c(C)c1
inhibition / %: -0.91

compound: COC(C(=O)Nc1ccc(S(=O)(=O)Nc2ccc(C)c(C)c2)cc1)c1ccccc1 (stereo unspecified)
inhibition / %: 1.68

compound: O=C(NCc1ccco1)c1nc(-c2ccccc2)n(-c2ccccc2)n1
inhibition / %: -1.81

compound: COc1ccc(CCNC(=O)CN2C(=O)CCSc3ccccc32)c(OC)c1
inhibition / %: -0.1

###

# System: cathepsin L1 (Fasciola hepatica)
# test method notes: CTSL1 protease inhibition, fluke enzyme – biochemical, QFRET, fluorogenic peptide substrate, counter-screen for PFM18AAP inhibitor project, primary screen (AID 1906);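 also: 0% = plate median of test compound wells and 100% = 1 µM Z-Phe-Ala-diazomethylketone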
# stated conditions: recombinant F. hepatica cathepsin L1, Z-Leu-Arg-MCA fluorescence; at 5.96 µM
Out of some 300,000 compounds screened, about 1,500 (0.5%) were called active.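 How the source made its calls: active means inhibition above the mean of all tested compounds plus 3 SD, set per screening campaign (cut at about 17% in these data); inactive means the rest.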 This excerpt belongs to a sample that is enriched for actives.
Labels: active, inactive

compound: N#Cc1c(N2CCCCC2)nc(N)c2c(N)nc(SCC(=O)O)cc12
group: inactive
--
compound: Cc1cccc(NC(=O)c2cc(S(=O)(=O)N3CCC4(CC3)OCCO4)ccc2F)c1
group: inactive
--
compound: Cc1cc(C)c(C#N)c(SCc2ccccc2C(=O)O)n1
group: inactive
--
compound: COc1ccc(Cl)cc1NC(=O)CCN1CCOCC1
group: inactive
--
compound: O=C(CCl)NNc1cccc(Cl)n1
group: active
--
compound: CC(=O)N1CCc2c(sc(NC(=O)CCS(=O)(=O)c3ccc(C)cc3)c2C(N)=O)C1
group: inactive
--
compound: CC1CC(C)CN(CCC(=O)Nc2ccc3c(c2)CCC3)C1 (configuration not stated)
group: active
--
compound: COc1ccc(C(=O)NC(=S)N2CCNC(=O)C2CC(=O)OC(C)C)cc1 (configuration not stated)
group: inactive
--
compound: Cc1cc(CNC(=O)C2CCC(=O)N(CCc3ccc(Cl)cc3)C2)no1 (configuration not stated)
group: inactive
--
compound: CCN(CC(=O)Nc1ccc(NC(C)=O)cc1)C(=O)C1CC(=O)N(Cc2ccc(C)cc2)C1 (configuration not stated)
group: inactive
--
compound: COc1ccc(CNC(=O)C(Cc2ccccc2)n2cccc2)cc1 (configuration not stated)
group: inactive
--
compound: CN(C)C(CNC(=O)c1cccc(C#N)c1)c1ccco1 (configuration not stated)
group: active
--
compound: O=C1C(Cl)=C(N2CCOCC2)C(=O)N1c1ccccc1
group: active
--
compound: CCn1cc(C(=O)N2CCN(C3CCCCC3)CC2)c2cc(OC)c(OC)cc2c1=O
group: active
--
compound: Nc1c(Cl)cc(-c2csc(N3CCCC3c3nc4cc(Cl)c(Cl)cc4n3CCOCCO)n2)cc1Cl (configuration not stated)
group: inactive
--
compound: CCCc1nnc(SCC(=O)Nc2ccc(C(=O)OCC)cc2)o1
group: active
--
compound: CN(C)C(CNC(=O)CCCOc1ccccc1)c1ccco1 (configuration not stated)
group: inactive
--
compound: CC1(C)CC(=O)C/C(=N\NC(=O)c2cccs2)C1
group: inactive
--
compound: COc1ccc(CNC(=O)CCn2cccc2)cc1
group: active
--
compound: CCOC(=O)C(C)n1cnc2scc(-c3ccc(C)c(C)c3)c2c1=O (configuration not stated)
group: inactive
--
compound: O=C(O)CC1(CC(=O)Nc2cccc(C(F)(F)F)c2)CCCC1
group: inactive
--
compound: COc1cc(C2C(N3C(=O)c4ccccc4C3=O)C(=O)N2c2ccc(C)c(C)c2)cc(OC)c1OC (configuration not stated)
group: inactive
--
compound: COc1ccc(NC(=O)COC(=O)CNC(=O)C2CCCCC2)cc1
group: active
--
compound: CCCOC(=O)Cc1c(O)c2ccccc2[nH]c1=O
group: active
--
compound: O=C(NCc1cccc(Cl)c1)C1CCN(c2nnc(N3CCCC3=O)s2)CC1
group: inactive
--
compound: Cc1cc(NC(=O)CCC(=O)N(c2ccccc2)C(C(=O)NC2CCCC2)c2ccncc2)no1 (configuration not stated)
group: inactive
--
compound: N#Cc1ccccc1NC(=O)c1cccc(COc2ccc(Cl)cc2Cl)c1
group: inactive
